Collected FACS signal values appear next to each entry.
Target: T1, human CLDN6, endogenously expressed on cancer cell lines (human, UniProt P56747 1-220)
T1 construct: also called Endogenous CLDN6+; CLDN6 on ARK2, OVCA429, UMUC4 cells
T1 sequence: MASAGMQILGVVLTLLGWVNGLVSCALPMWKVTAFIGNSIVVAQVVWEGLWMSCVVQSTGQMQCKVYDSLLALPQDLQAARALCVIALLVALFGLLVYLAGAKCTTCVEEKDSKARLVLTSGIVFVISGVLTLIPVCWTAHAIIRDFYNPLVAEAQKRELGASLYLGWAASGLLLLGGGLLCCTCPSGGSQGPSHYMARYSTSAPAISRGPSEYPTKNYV
Test: FACS, ARK2 cells, 1.5 ug Ab

>  <binder>
AB3-chim (antibody, V domains shown, Parental antibody prior to humanization ('chim'); also called pre-humanized form of AB3) VH: EVKLEESGGGLVQPGGSMKLSCVASGFTFSNYWMNWVRQSPEKGLEWVAQIRLKSDNYATHYAESVKGRFTISRDDSKRSVYLQMNNLRAEDTGTYYCNDGPPSGCWGQGTTLIVSS VL: DIQMTQSPASLSASVGETVTITCRISENIYSYLAWYQQKQGKSPQLLVYNAKILVEGVPSRFSGSGSGTQFSLKINSLQPEDFGNYYCQHHYTVPWTFGGGTKLEIK

>  <FACS signal>
29100

$$$$
>  <binder>
AB4-10 (antibody, V domains shown, Humanized; full-length IgG; see note of AB4-8; also called humanized AB 4-10) VH: QVQLVQSGAEVKKPGASVKMSCKASGYTFTSYTMHWIRQAPGQGQEWIGYINPSSTYTHYIKKFKDRATLTADTSTSTAYMELSSLRSEDTAVYYCSRGELGGFAYWGQGTLVTVSS VL: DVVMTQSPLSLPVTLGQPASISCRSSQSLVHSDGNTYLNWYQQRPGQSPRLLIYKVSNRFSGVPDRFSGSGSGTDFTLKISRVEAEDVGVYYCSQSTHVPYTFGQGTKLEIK

>  <FACS signal>
20200

$$$$
>  <binder>
AB4-6 (antibody, V domains shown, Humanized; also called humanized AB 4-6) VH: QVQLVQSGAEVKKPGASVKMSCKASGYTFTSYTMHWIRQAPGQGLEWIGYINPSSTYTHYAQKFQGRATLTADKSTSTAYMELSSLRSEDTAVYYCSRGELGGFAYWGQGTLVTVSS VL: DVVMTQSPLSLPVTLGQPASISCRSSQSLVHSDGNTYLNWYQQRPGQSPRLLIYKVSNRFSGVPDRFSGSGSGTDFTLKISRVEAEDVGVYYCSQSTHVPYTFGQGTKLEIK

>  <FACS signal>
9840

$$$$
